# Assayed system: ROCK1 (Homo sapiens, UniProt Q13464)
# Construct: purchased Upstate/Chemicon 14-601
# Sequence (Q13464 17-535 limits assumed): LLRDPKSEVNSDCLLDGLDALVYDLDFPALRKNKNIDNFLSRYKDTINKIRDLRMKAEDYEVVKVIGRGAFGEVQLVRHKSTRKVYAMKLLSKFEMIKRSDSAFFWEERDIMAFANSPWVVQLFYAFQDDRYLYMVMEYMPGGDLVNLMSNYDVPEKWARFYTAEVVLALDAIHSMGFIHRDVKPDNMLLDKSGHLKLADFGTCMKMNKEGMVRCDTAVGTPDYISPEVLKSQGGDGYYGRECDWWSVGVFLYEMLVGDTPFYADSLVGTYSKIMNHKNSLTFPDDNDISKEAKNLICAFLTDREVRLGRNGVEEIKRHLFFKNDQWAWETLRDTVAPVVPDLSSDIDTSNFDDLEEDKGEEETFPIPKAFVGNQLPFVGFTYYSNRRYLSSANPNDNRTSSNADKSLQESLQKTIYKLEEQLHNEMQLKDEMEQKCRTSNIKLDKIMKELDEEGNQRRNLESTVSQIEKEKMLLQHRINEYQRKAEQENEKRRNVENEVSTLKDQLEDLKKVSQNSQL
# Assay: Rho kinase inhibition assay (IMAP fluorescence polarization), ROCK1;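 also: kinase reaction run 60 min at room temperature, then phosphorylated substrate captured on IMAP beads for 30 min, with fluorescence polarization read in mP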
# Type: biochemical
# Condition description: Avg, 10 μM ATP
Measured quantity: Ki (nM)
Your answer is read as nM, so omit the unit and give the number.

Consider the following illustrative entries.
Entry smiles: CCOC(=O)COc1cccc(CN2CCC[C@H](Nc3ccc4[nH]ncc4c3)C2)c1
Units text: nM
Ki: 76.5
//
Entry smiles: CS(=O)(=O)Nc1cccc(CN2CCC[C@H](Nc3cccc4cnccc34)C2)c1
Units text: nM
Ki: 921
//
Entry smiles: Clc1ccc(CN2CCC[C@@H](Nc3ccc4[nH]ncc4c3)C2)cc1Cl
Units text: nM
Ki: 97.6
//
Entry smiles: COc1c(CN2CC[C@@H](Nc3cccc4cnccc34)C2)cccc1NS(=O)(=O)N(C)C
Units text: nM
Ki: 35.4
//
Entry smiles: CC1(C)OC[C@H](COc2cccc(CN3CCC[C@@H](Nc4ccc5[nH]ncc5c4)C3)c2)O1
Units text: nM
Ki: 229

Value of Ki reported for the compound OCCOc1cccc(CN2CCC(Nc3ccc4[nH]ncc4c3)CC2)c1 is 577

Value of Ki reported for the compound O=C(COc1cccc(CN2CCC[C@@H](Nc3ccc4[nH]ncc4c3)C2)c1)N1CCOCC1 is 96.6

Value of Ki reported for the compound Cc1ccc(CN2CC[C@@H](Nc3cccc4cnccc34)C2)cc1NS(=O)(=O)N(C)C is 33.7

---

# Assay: Compound plasma concentrations in unsensitized mice at 15 min post administration
# Type: in vivo
# Condition description: mouse, 15 μmol/kg; mean compound plasma concentration in mice at 15 minutes post oral administration; read-out: Mouse Oral PK
Rule: 1 for concentration at 15 min not less than 500 nM, 0 for anything less.

Compound: Clc1ccc(CN2CCC[C@H](Nc3ccc4[nH]ncc4c3)C2)cc1 [Compound 1.141]
Class assignment: 1

Compound: C#Cc1ccc(CN2CCC[C@H](Nc3ccc4[nH]ncc4c3)C2)cc1 [Compound 1.077]
Class assignment: 0

Compound: CCCCS(=O)(=O)Nc1cc(CN2CCC[C@H](Nc3ccc4[nH]ncc4c3)C2)ccc1C [Compound 1.236]
Class assignment: 0

Compound: NC(=O)Cn1ccc2ccc(CN3CC[C@@H](Nc4cccc5cnccc45)C3)cc21 [Compound 2.058]
Class assignment: 0

Compound: CSc1cccc(CN2CCC[C@H](Nc3ccc4[nH]ncc4c3)C2)c1 [Compound 1.158]
Class assignment: 0

Compound: c1cc2cc(CN3CCC[C@H](Nc4ccc5[nH]ncc5c4)C3)ccc2s1 [Compound 1.175]
Class assignment: 1

Compound: c1ccc2c(CN3CCC[C@@H](Nc4ccc5[nH]ncc5c4)C3)c[nH]c2c1 [Compound 1.252]
Class assignment: 1

Compound: Oc1cccc(CN2CCC[C@H](Nc3ccc4[nH]ncc4c3)C2)c1 [Compound 1.163]
Class assignment: 0

Compound: COc1ccc(CN2CC[C@@H](Nc3cccc4cnccc34)C2)cc1 [Compound 2.047]
Class assignment: 0

Compound: CC(=O)NCc1cccc(CN2CCC[C@H](Nc3ccc4[nH]ncc4c3)C2)c1 [Compound 1.197]
Class assignment: 0

Let us examine a further case.
Qu. Does the reported concentration at 15 min for c1cc2cc(CN3CCC[C@H](Nc4ccc5[nH]ncc5c4)C3)ccc2o1 [Compound 1.150] fall at or above the 500 nM mark?
Ans. 1
